- TEST_SUMMARY: Concentration of active agent in the rabbit eye after injection of a sustained release formulation into the vitreous
- Format: in vivo
- CONDITION: other: intravitreal injection; 50 μL unit dose of 20% timolol maleate:10% Reservatrol:70% (1:1 ATEC:EA) injected into vitreous of two rabbit eyes; 7 days thereafter; average; read-out: concentration of Reservatrol detected in the vitreous
METRIC_NAME: concentration at 7 days (ng/mL)
Give just the numeric value; ng/mL need not be written.

stdin: What does the data say about its concentration at 7 days? Entry: Oc1ccc(/C=C/c2cc(O)cc(O)c2)cc1 [Reservatrol, 3,5,4′-trihydroxy-trans-stilbene]
stdout: 640
